Reported inhibition is given for each of the following compounds.
MEASUREMENT_PROTOCOL: APP 5'UTR translational reporter suppression – APP 5'UTR luciferase, SH-SY5Y cells, primary screen (AID 1285)
ASSAY_SETUP: SH-SY5Y APP 5'UTR-luciferase reporter, luminescence; at 2 µM; hits give high values
Hit rate of the full screen: of about 190,000 compounds, about 1,600 (0.84%) were called active. Many of the other results were omitted from the sample, so actives are more common in it than they were.
Form entry: value (%) — number only.

- COMPOUND: "CCOc1cccc(-n2nnnc2-c2ccc(OC)cc2)c1"
  OUTPUT_UNIT: "%"
  inhibition: 65.8
- COMPOUND: "CCN(Cc1ccccc1)S(=O)(=O)c1cc(C(=O)O)ccc1OC"
  OUTPUT_UNIT: "%"
  inhibition: -51.9
- COMPOUND: "N#CC1=C(N)Oc2c(sc3ccccc23)C1c1ccco1 (stereo unspecified)"
  OUTPUT_UNIT: "%"
  inhibition: 56.2
- COMPOUND: "CC(=O)Nc1ccc(S(=O)(=O)N2CCN(C3CCCCCCC3)CC2)cc1"
  OUTPUT_UNIT: "%"
  inhibition: -4.6
- COMPOUND: "CC(=O)Nc1ccc(S(=O)(=O)N2CCN(C(=O)c3ccccc3F)CC2)cc1"
  OUTPUT_UNIT: "%"
  inhibition: 94.3

Next up:
Any idea what inhibition was measured for CCCCn1nc(C(=O)Nc2ccc(S(=O)(=O)Nc3ncccn3)cc2)c2ccccc2c1=O ?
-36.5
